Values from patent US9815787B2

Target: OX2R (Homo sapiens)
Construct: expressed in transfected cells; host or cells: CHO (Chinese hamster ovary) cells constitutively expressing the OX2R gene and NFAT-luciferase (CHOOX2R)
Sequence (O43614 1-444): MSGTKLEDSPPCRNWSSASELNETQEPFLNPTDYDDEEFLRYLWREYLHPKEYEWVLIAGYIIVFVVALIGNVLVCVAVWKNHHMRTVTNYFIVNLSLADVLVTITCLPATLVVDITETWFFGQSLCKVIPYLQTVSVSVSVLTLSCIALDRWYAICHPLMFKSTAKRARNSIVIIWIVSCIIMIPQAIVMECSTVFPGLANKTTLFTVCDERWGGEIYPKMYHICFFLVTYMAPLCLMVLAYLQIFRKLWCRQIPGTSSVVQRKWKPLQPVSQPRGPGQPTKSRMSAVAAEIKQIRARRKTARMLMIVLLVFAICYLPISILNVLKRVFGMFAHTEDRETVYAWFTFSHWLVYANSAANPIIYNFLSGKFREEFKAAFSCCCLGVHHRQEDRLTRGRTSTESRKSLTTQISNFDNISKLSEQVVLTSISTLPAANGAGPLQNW
Test: Evaluation of agonist activity against OX2R (CHOOX2R cells, Fura2AM fluorescence, FDSS3000)
Assay type: cell-based
Conditions: test compound 10 μM; relative to orexin-A as full agonist (100%); CHOOX2R cells
Items are presented alongside their recorded Response (10 μM (%)).

Examples with their reported Response (10 μM (%)) follow.
Report Response (10 μM (%)), nothing else, for this molecule: COc1cccc(C(=O)NCCNc2cccc(NS(=O)(=O)c3cc(-c4ccccc4C)ccc3OC)c2)c1 11%

Report Response (10 μM (%)), nothing else, for this molecule: COc1cc(C)c(-c2cccc(C(=O)N(C)C)c2)cc1S(=O)(=O)Nc1cccc(NCCNC(=O)c2ccccc2Cl)c1 86%

Continuing:
Report Response (10 μM (%)), nothing else, for this molecule: CCOc1ccc(-c2cccc(C(=O)N(C)C)c2)cc1S(=O)(=O)Nc1cccc(NCCNC(=O)c2ccccc2OC)c1 82%

Report Response (10 μM (%)), nothing else, for this molecule: COc1cccc(C(=O)NCCNc2cccc(NS(=O)(=O)c3cc(-c4cc(F)ccc4F)ccc3OC)c2)c1 180%

Report Response (10 μM (%)), nothing else, for this molecule: COc1ccccc1C(=O)NCCNc1cccc(NS(=O)(=O)c2cc(-c3cccc(C(=O)N(C)C)c3)ccc2F)c1 82%

Report Response (10 μM (%)), nothing else, for this molecule: COc1cc(C)c(-c2cccc(C(=O)N(C)C)c2)cc1S(=O)(=O)Nc1cccc(NCCNC(=O)c2cccc(F)c2)c1 85%

---

molecular target: OX2R (Homo sapiens, UniProt O43614); construct: expressed in transfected cells; host or cells: CHO (Chinese hamster ovary) cells constitutively expressing the OX2R gene and NFAT-luciferase (CHOOX2R); assay: Evaluation of agonist activity against OX2R (CHOOX2R cells, Fura2AM fluorescence, FDSS3000); format: cell-based; details: test compound 0.1 μM; CHOOX2R cells; relative to orexin-A as full agonist (100%)
Measurement label: Response (0.1 μM (%))
API: value field is a number in %; no unit string.

Consider the compound COc1ccccc1C(=O)NCCNc1cccc(NS(=O)(=O)c2cc(-c3cccc(C(=O)N4CCCC4)c3)ccc2OC)c1 tested on OX2R (Homo sapiens, UniProt O43614); state its Response (0.1 μM (%)). 49

Consider the compound COc1ccc(-c2cccc(C(=O)N(C)C)c2)cc1S(=O)(=O)Nc1cccc(NCCNC(=O)c2occc2C)c1 tested on OX2R (Homo sapiens, UniProt O43614); state its Response (0.1 μM (%)). 42

Consider the compound COc1ccc(-c2cccc(C(=O)N3CCCCC3)c2)cc1S(=O)(=O)Nc1cccc(NCCNC(=O)c2cccc(F)c2)c1 tested on OX2R (Homo sapiens, UniProt O43614); state its Response (0.1 μM (%)). 27

Continuing:
Consider the compound COc1ccc(-c2cccc(C(=O)N(C)C)c2)cc1S(=O)(=O)Nc1cccc(NCCNC(=O)c2ccccc2Cl)c1 tested on OX2R (Homo sapiens, UniProt O43614); state its Response (0.1 μM (%)). 65

Consider the compound COc1ccc(-c2cccc(C(=O)N3CCCC3)c2)cc1S(=O)(=O)Nc1cccc(NCCNC(=O)c2c(F)cccc2F)c1 tested on OX2R (Homo sapiens, UniProt O43614); state its Response (0.1 μM (%)). 76

---

Biological target: OX2R (Homo sapiens)
Construct: expressed in transfected cells; host or cells: CHO (Chinese hamster ovary) cells constitutively expressing the OX2R gene and NFAT-luciferase (CHOOX2R)
Sequence (O43614 1-444): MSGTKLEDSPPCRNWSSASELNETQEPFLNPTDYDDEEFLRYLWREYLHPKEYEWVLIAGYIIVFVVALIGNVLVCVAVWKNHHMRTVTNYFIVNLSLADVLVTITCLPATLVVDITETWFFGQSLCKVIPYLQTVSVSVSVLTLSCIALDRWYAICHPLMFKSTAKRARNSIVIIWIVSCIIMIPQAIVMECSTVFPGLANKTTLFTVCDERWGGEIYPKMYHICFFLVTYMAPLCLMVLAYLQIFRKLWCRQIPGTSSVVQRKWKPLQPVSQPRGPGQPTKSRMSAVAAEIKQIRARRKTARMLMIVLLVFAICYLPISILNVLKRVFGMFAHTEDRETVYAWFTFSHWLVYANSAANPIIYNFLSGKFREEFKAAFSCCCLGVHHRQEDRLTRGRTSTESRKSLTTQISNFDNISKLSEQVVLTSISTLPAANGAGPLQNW
Assay: Evaluation of agonist activity against OX2R (CHOOX2R cells, Fura2AM fluorescence, FDSS3000)
Type: cell-based
Conditions: test compound 1.0 μM; relative to orexin-A as full agonist (100%); CHOOX2R cells
Items are presented alongside their recorded Response (1.0 μM (%)).
API: value field is a number in %; no unit string.

Report Response (1.0 μM (%)), nothing else, for this compound: COc1ccccc1C(=O)NCCNc1cccc(NS(=O)(=O)c2cc(-c3cccc(F)c3)ccc2OC)c1 46

Report Response (1.0 μM (%)), nothing else, for this compound: COc1cccc(C(=O)NCCNc2cccc(NS(=O)(=O)c3cc(-c4c(F)cccc4F)ccc3OC)c2)c1 13

Report Response (1.0 μM (%)), nothing else, for this compound: COc1ccccc1C(=O)NCCNc1cccc(NS(=O)(=O)c2cc(-c3cc(F)ccc3F)ccc2OC)c1 8

Report Response (1.0 μM (%)), nothing else, for this compound: COc1cc(C)c(-c2cccc(C(=O)N(C)C)c2)cc1S(=O)(=O)Nc1cccc(NCCNC(=O)c2ccccc2Cl)c1 88

Report Response (1.0 μM (%)), nothing else, for this compound: COc1ccc(-c2ccccc2F)cc1S(=O)(=O)Nc1cccc(NCCNC(=O)c2cccc(Cl)c2)c1 9

API: the following record is the query input.
Report Response (1.0 μM (%)), nothing else, for this compound: COc1ccccc1C(=O)NCCNc1cccc(NS(=O)(=O)c2cc(-c3cccc(C(=O)N(C)C)c3)ccc2C)c1 27

---

Items are presented alongside their recorded Response (1.0 μM (%)).
molecular target: OX2R (Homo sapiens); construct: expressed in transfected cells; host or cells: CHO (Chinese hamster ovary) cells constitutively expressing the OX2R gene and NFAT-luciferase (CHOOX2R); test: Evaluation of agonist activity against OX2R (CHOOX2R cells, Fura2AM fluorescence, FDSS3000); format: cell-based; conditions: test compound 1.0 μM; relative to orexin-A as full agonist (100%); CHOOX2R cells
API: value field is a number in %; no unit string.

Report Response (1.0 μM (%)), nothing else, for this molecule: COc1cccc(C(=O)NCCNc2cccc(NS(=O)(=O)c3cc(-c4ccccc4OC)ccc3OC)c2)c1 64

Continuing:
Report Response (1.0 μM (%)), nothing else, for this molecule: COc1cccc(C(=O)NCCNc2cccc(NS(=O)(=O)c3cc(-c4ccccc4Cl)ccc3OC)c2)c1 17

---

target: OX2R (Homo sapiens); construct: expressed in transfected cells; host or cells: CHO (Chinese hamster ovary) cells constitutively expressing the OX2R gene and NFAT-luciferase (CHOOX2R); assay: Evaluation of agonist activity against OX2R (CHOOX2R cells, Fura2AM fluorescence, FDSS3000); assay type: cell-based; conditions: test compound 0.1 μM; CHOOX2R cells; relative to orexin-A as full agonist (100%)
Items are presented alongside their recorded Response (0.1 μM (%)).
API: value field is a number in %; no unit string.

Consider the compound COc1ccccc1C(=O)NCCNc1cccc(NS(=O)(=O)c2cc(-c3cccc(NCC(C)C)c3)ccc2OC)c1 [Example 38] tested on OX2R (Homo sapiens); state its Response (0.1 μM (%)). 8

Consider the compound COc1ccc(-c2cccc(C(=O)N(C)C)c2)cc1S(=O)(=O)Nc1cccc(NCCNC(=O)c2cccc(Cl)n2)c1 [Example 55] tested on OX2R (Homo sapiens); state its Response (0.1 μM (%)). 23

Consider the compound COc1ccc(-c2cccc(C(=O)N(C)C)c2)cc1S(=O)(=O)Nc1cccc(NCCNC(=O)c2ccoc2C)c1 [Example 67] tested on OX2R (Homo sapiens); state its Response (0.1 μM (%)). 55
